Documented solubility across a set of compounds
measurement-protocol: physchem
recorded-conditions: organic solvent or mixture, solubility in Ethyl acetate

compound: CCN(CC)c1ccc(N(c2ccc(-c3ccc(N(c4ccc(OC)cc4)c4ccc(OC)cc4)cc3)cc2)c2ccc(-c3ccc(N(c4ccc(-c5ccc(N(c6ccc(OC)cc6)c6ccc(OC)cc6)cc5)cc4)c4ccc(N(CC)CC)cc4)cc3)cc2)cc1
solubility: 90 to 110 mg/mL
--
compound: COc1ccc(N(c2ccc(OC)cc2)c2ccc(-c3ccc(N(c4ccc(OC)cc4)c4ccc(-c5ccc(N(c6ccc(OC)cc6)c6ccc(-c7ccc(N(c8ccc(OC)cc8)c8ccc(OC)cc8)cc7)cc6)c(C)c5)cc4C)cc3)cc2)cc1
solubility: 700 to 1400 mg/mL
--
compound: COc1ccc(N(c2ccc(OC)cc2)c2ccc(-c3ccc(N(c4ccc(OC)cc4)c4ccc(-c5ccc(N(c6ccc(OC)cc6)c6ccc(-c7ccc(N(c8ccc(OC)cc8)c8ccc(OC)cc8)cc7)cc6)cc5)cc4)cc3)cc2)cc1
solubility: 70 to 80 mg/mL
--
compound: COc1ccc(N(c2ccc(OC)cc2)c2ccc3c(c2)C2(c4cc(N(c5ccc(OC)cc5)c5ccc(OC)cc5)ccc4-3)c3cc(N(c4ccc(OC)cc4)c4ccc(OC)cc4)ccc3-c3ccc(N(c4ccc(OC)cc4)c4ccc(OC)cc4)cc32)cc1 [spiro-MeOTAD, reference compound]
solubility: < 6 mg/mL
--
compound: COc1ccc(N(c2ccc(OC)cc2)c2ccc(N(c3ccccc3)c3ccc(-c4ccc(N(c5ccccc5)c5ccc(N(c6ccc(OC)cc6)c6ccc(OC)cc6)cc5)cc4)cc3)cc2)cc1
solubility: 140 mg/mL
--
compound: COc1ccc(N(c2ccc(-c3ccc(N(c4ccc(OC)cc4)c4ccc(-c5ccc(N(c6ccc(OC)cc6)c6ccc(C)c(C)c6)cc5)cc4)cc3)cc2)c2ccc(-c3ccc(N(c4ccc(OC)cc4)c4ccc(C)c(C)c4)cc3)cc2)cc1
solubility: > 460 mg/mL
--
compound: COc1ccc(N(c2ccc(OC)cc2)c2ccc(-c3ccc(N(c4ccc(OC)cc4)c4ccc(N(c5ccc(OC)cc5)c5ccc(-c6ccc(N(c7ccc(OC)cc7)c7ccc(OC)cc7)cc6)cc5)cc4)cc3)cc2)cc1
solubility: 50 to 65 mg/mL
--
compound: COc1ccc(N(c2ccc(OC)cc2)c2ccc(-c3ccc(N(c4ccc(OC)cc4)c4ccc5c(c4)c4cc(N(c6ccc(OC)cc6)c6ccc(-c7ccc(N(c8ccc(OC)cc8)c8ccc(OC)cc8)cc7)cc6)ccc4n5-c4ccccc4)cc3)cc2)cc1
solubility: 600 to 1200 mg/mL
--
compound: COc1ccc(N(c2ccc(OC)cc2)c2ccc(-c3ccc(N(c4ccc(OC)cc4)c4ccc5c(c4)Cc4cc(N(c6ccc(OC)cc6)c6ccc(-c7ccc(N(c8ccc(OC)cc8)c8ccc(OC)cc8)cc7)cc6)ccc4-5)cc3)cc2)cc1
solubility: 240 to 480 mg/mL
--
compound: COc1ccc(N(c2ccc(OC)cc2)c2ccc(-c3ccc(N(c4ccc(OC)cc4)c4ccc5c(c4)C(C)(C)c4cc(N(c6ccc(OC)cc6)c6ccc(-c7ccc(N(c8ccc(OC)cc8)c8ccc(OC)cc8)cc7)cc6)ccc4-5)cc3)cc2)cc1
solubility: > 660 mg/mL

Could you share which solubility value was measured for `COc1ccc(N(c2ccc(C)cc2)c2ccc(-c3ccc(N(c4ccc(OC)cc4)c4ccc(-c5ccc(N(c6ccc(OC)cc6)c6ccc(-c7ccc(N(c8ccc(C)cc8)c8ccc(OC)cc8)cc7)cc6)cc5)cc4)cc3)cc2)cc1` ? 60 to 100 mg/mL

Where do the numbers come from? From patent US20110297235A1.
